# Test system: PPARg:RXRa 90nM:30nM, anti-RXR (NR concentration 90 nM, RXRa partner concentration 30 nM)
# assay text: PBM binding z-score (relative to random genomic background probes); higher = stronger binding; sequences stand for … in GC…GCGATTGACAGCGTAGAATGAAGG
endpoint label: PBM binding z-score

[[record]]
seq = "ATATGTAGGTTAGGGTAATTCAGAAAGTAGGGAA"
reported_result = 3.13

[[record]]
seq = "CGAACTAGGTCAAAGGACAGTCAAAGGCGACGTA"
reported_result = 9.11

[[record]]
seq = "ACTCGGAGGACAAACGTCAGAGCTACGCCAGTGA"
reported_result = 0.589

[[record]]
seq = "ACTAACAGGCCAAGGGTCACTCAAGATTAGTCCG"
reported_result = 6.91

[[record]]
seq = "TCGAGTAGGTTACGGGGGCATTAAGGGATGAAGA"
reported_result = 5.14

[[record]]
seq = "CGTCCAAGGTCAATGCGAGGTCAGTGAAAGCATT"
reported_result = 3.65

[[record]]
seq = "TTACCAAGGTGACCTGAGGTCGTTGATCCAACTC"
reported_result = 1.34

[[record]]
seq = "ATATGTAGGTTAGGGTCATTCGGAAAGTAGGGAA"
reported_result = 6.36

[[record]]
seq = "ATATGTAGGATATCGGGTCATTCAGTTTGCGCAT"
reported_result = 2.09

[[record]]
seq = "AGTCAAAGTTCAGGACGAGGTAAAGTAAAGCACG"
reported_result = 4.21

[[record]]
seq = "AGTCAAAGTTCATCAAGGTAACGTAAGATATGCT"
reported_result = 5.75

[[record]]
seq = "CTATGTAGGTTAAGGAGGTCATTCAGTTTGAAAG"
reported_result = 5.11

